- test_target: T1, naked peptide TSPIPNMADD (human)
- T1 peptide: TSPIPNMADD
- experimental_details: ELISA naked peptide; scFv 1 ug/mL; repII
In this section we review reported OD450 values for a set of binders.
Answer with a number only, understood to be in OD.

Example cases with answers are listed next.
>>> observed_measurement("Comparative antibody 1 (Comp-1) scFv, SEQ ID NO: 10 from WO2023/037125 A1, His-tagged (scFv) scFv: QVQLKESGPGLVQPSQTLSLTCTVSGFSVASYDMHWVRLPPGKGLEWMGIIWANGNTHYNSGLKSRLSISRDTSKSQVFLKMNSLQTEDTAIYFCTRGGFAYWGQGTLVTVSSGGGGSGGGGSGGGGSGGGGSDVVMTQTPVSLSVSLGGQVSISCRSSQSLVHNNGNTYLSWYLQKPGQSPQLLIYKVSNRFSGVSDRFSGSGSGTDFTLKISRVEPDDLGVYYCGQGTQYPTFGGGTKLELKHHHHHH")
0.05
>>> observed_measurement("CCR9_HUM2 scFv (humanized anti-CCR9 scFv, SEQ ID NO: 17 with C-terminal 6xHis tag) (scFv) scFv: QVQLVQSGAEVKKPGASVKVSCTASGYSFTDYIIYWVKQAHGQSLEWMGYIDPNNYNTRYSQKFQGKVTITVDKSSTSAYMELNSLTSDDTAVYYCARDVYWGQGTTVTVSSGGGGSGGGGSGGGGSGGGGSDVVMTQTPLSLSVTPGQPASISCRSSQSLVHSNGKTYLQWYLQKPGQSPKLLIYKVSNRFSGVPDRFSGSGSGTDFTLKISRVEAEDVGVYFCAQSTHVWTFGGGTKVEIKRAHHHHHH")
0.02
>>> observed_measurement("Comparative antibody 3 (Comp-3) scFv, SR_92R (Somovilla-Crespo et al. 2018), His-tagged (scFv) scFv: EVKLEESGGGLVQPGGSMKLSCVASGFTFNKFWMNWVRQSPEKGLEWVAEIRLKSNNYATHYAESVKGRFTISRDDSKSSVYLQMNNLRAEDTGIYYCASDGWFAYWGQGTLVTVSAGGGGSGGGGSGGGGSGGGGSDVVMTQTPLSLPVSLGDQASISCRSSQSLVHSNGNTYLNWCLQRPGQSPKSLIYKVSNRFSGVPDRFSGSGSGTDFTLKISRVEAEDLGVYFCSQSTHFPRTFGGGTKLEIKRHHHHHH")
0.04

Please look at the following binder next.
Fill in reported OD450 for this entry: Comparative antibody 2 (Comp-2) scFv, 243LO326 (VH SEQ ID NO: 51 and VL SEQ ID NO: 52 of WO 2022/195028 A2), His-tagged (scFv) scFv: QVQLVQSGAEVKKPGASVKVSCKASGYTFTSYWMHWVRQAPGQGLEWIGVIYPGNSDTRYNQKFKGRVTITRDTSASTAYMELSSLRSEDTAVYYCTRDYYSNYVYYYAMDYWGQGTTVTVSSGGGGSGGGGSGGGGSGGGGSDIVMTQTPLSLPVTPGEPASISCRSSQSLVHPNRNTYLHWYLQKPGQSPQLLIYKVSNRFSGVPDRFSGSGSGTDFTLKISRVEAEDVGVYYCSQSTHVPWTFGQGTKLEIKHHHHHH 0.02
